# OD450 listing for each entry below
- assayedTarget: BSA (UniProt P02769)
- Sequence (P02769 25-607 limits assumed): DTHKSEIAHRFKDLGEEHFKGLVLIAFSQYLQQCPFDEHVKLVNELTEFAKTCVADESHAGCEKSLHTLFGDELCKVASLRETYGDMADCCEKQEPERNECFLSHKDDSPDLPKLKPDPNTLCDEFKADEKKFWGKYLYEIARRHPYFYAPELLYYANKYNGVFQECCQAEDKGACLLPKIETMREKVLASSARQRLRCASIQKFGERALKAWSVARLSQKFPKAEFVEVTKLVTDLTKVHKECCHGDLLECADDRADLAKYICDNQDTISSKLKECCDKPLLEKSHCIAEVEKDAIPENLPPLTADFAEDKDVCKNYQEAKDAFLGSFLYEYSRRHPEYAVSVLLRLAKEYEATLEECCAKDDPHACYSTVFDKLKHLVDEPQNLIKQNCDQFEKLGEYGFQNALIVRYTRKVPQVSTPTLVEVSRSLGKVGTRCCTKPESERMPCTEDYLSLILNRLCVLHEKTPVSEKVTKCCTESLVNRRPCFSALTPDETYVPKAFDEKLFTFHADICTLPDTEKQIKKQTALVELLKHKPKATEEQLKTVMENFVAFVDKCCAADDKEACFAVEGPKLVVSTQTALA
- protocolSummary: scFv ELISA
Number only, in OD450; omit the unit.

Guide cases for OD450, answers given:
PcOxP_DB02_G05 (scFv, V domains shown, scFv in periplasmic extract) VH: EVQLLESGGGLVQPGGSLRLSCAASGFTFSDFYMEWVRQAPGKGLEWVAASRNKANDYTTEYADSVKGRFTISRDNSKNTLYLQMNSLRAEDTAVYYCARDYYGSSHWYFDVWGQGTLVTVSS VL: DIVMTQSPDSLAVSLGERATINCTASESLYSSKHKLHYLAWYQQKPGQPPKLLIYGASNRYIGVPDRFSGSGSGTDFTLTISSLQAEDVAVYYCGQFYSYPLTFGGGTKVEIK :: 0.11
PcOxP_DB01_F01 (scFv, V domains shown, scFv in periplasmic extract) VH: EVQLLESGGGLVQPGGSLRLSCAASGFPFSDFYMEWVRQAPGKGLEWVAASRNKANDYTTEYADSVKGRFTISRDNSKNTLYLQMNSLRAEDTAVYYCARDYYGSPYWYFDVWGQGTLVTVSS VL: DIVMTQSPDSLAVSLGERATINCTASESVYSSKNKKHYLAWYQQKPGQPPKLLIYGASNRYIGVPDRFSGSGSGTDFTLTISSLQAEDVAVYYCAQFYTYPLTFGGGTKVEIK :: 0.08
PcOxP_DB03_D03 (scFv, V domains shown, scFv in periplasmic extract) VH: EVQLLESGGGLVQPGGSLRLSCAASGFTFSDYYMEWVRQAPGKGLEWVAASRNKANDYTTEYADSVKGRFTISRDNSKNTLYLQMNSLRAEDTAVYYCARDYYFSSYWYFDVWGQGTLVTVSS VL: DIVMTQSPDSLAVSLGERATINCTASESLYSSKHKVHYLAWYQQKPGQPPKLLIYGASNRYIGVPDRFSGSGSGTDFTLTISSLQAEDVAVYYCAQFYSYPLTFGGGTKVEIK :: 0.1
PcOxP_DB02_F04 (scFv, V domains shown, scFv in periplasmic extract) VH: EVQLLESGGGLVQPGGSLRLSCAASGFTGSDFYMEWVRQAPGKGLEWVAASRNSGNSYTTAYADSVKGRFTISRDNSKNTLYLQMNSLRAEDTAVYYCARDYFGSSYWYFDVWGQGTLVTVSS VL: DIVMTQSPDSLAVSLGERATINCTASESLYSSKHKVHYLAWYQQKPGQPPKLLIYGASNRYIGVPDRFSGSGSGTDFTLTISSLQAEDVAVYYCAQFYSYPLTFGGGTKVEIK :: 0.09

Now examine the next entry.
### Prompt Reported OD450, binder PcOxP_DB04_H10 (scFv, V domains shown, scFv in periplasmic extract) VH: EVQLLESGGGLVQPGGSLRLSCAASGATFSDFYVEWVRQAPGKGLEWVAASRNKANDYTTEYADSVKGRFTISRDNSKNTLYLQMNSLRAEDTAVYYCARDYYGSSYWYFDVWGQGTLVTVSS VL: DIQMTQSPSSLSASVGDRVTITCTASESLYSSKHKVHYLAWYQQKPGKAPKLLIYGPSNRYIGVPSRFSGSGSGTDFTLTISSLQPEDFATYYCAQFYSYPLTFGGGTKVEIK : ____
### Response 0.1
